- Test system: Saccharomyces cerevisiae
- test_summary: protein stability index of tFT-peptide fusion (C-terminal peptide) (PSI (0-1 scale)); higher = more stable (slower turnover);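 also: PSI is a weighted mean of sequencing reads over stability bins, variants kept only with over 10 reads, mCherry proximal and sfGFP distal, peptide attached via GGGS linker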
- reported_conditions: genetic background: cdc34-1; temperature: 37 C
Overview of reported protein stability index across a group of sequences:

# biosequence, protein stability index
rows = [
    ("LWFGAWWLGAVG", 0.318),
    ("IFRLVRVVRSSS", 0.669),
]

What is its protein stability index for Saccharomyces cerevisiae? Entry: SYWNSSPKCGNW
0.712

Form entry - test system: Saccharomyces cerevisiae; read-out: protein stability index; sequence: RLLLLLTCIIYI
0.173

I'm curious: which protein stability index was measured for IISPLRLLPLFF tested on Saccharomyces cerevisiae?
0.634

Record lookup: for Saccharomyces cerevisiae, what protein stability index belongs to SFPPLPPLPLPP ?
0.64

Lab request: please report protein stability index under test system Saccharomyces cerevisiae for GFVLMLLVRFEL
0.299

Query protein stability index on Saccharomyces cerevisiae for ISVRKTFLIVLC
0.331

Give protein stability index (Saccharomyces cerevisiae) of the following sequence: LLLPVFLVFSVS
0.295

Record lookup: for Saccharomyces cerevisiae, what protein stability index belongs to TVILVLFPSPFL ?
0.589

Checklist item: protein stability index tested on Saccharomyces cerevisiae, entry GGRHYGILDLSL , value?
0.638

// fetch Saccharomyces cerevisiae protein stability index for FASVFCVVTGYV
0.551

Hello, I am looking for reported protein stability index with Saccharomyces cerevisiae for PPLLLFLSLAFL . Could you help?
0.322

I'm curious: which protein stability index was measured for VCRCFPVCLFSF tested on Saccharomyces cerevisiae?
0.618

Provide the documented protein stability index with Saccharomyces cerevisiae as the system for FPLGAQTWLCLS
0.645

// fetch Saccharomyces cerevisiae protein stability index for FFALFLPLACFC
0.469

Find protein stability index (Saccharomyces cerevisiae) for the entry FRYLRPAFLLLH
0.162

Please tell me: protein stability index of LSRLWVVGWVVA , system Saccharomyces cerevisiae?
0.453

Short answer please: protein stability index, Saccharomyces cerevisiae, entry LLLSLLVLRFFL
0.37

Param readout= protein stability index; system= Saccharomyces cerevisiae; entry= SFFFLILFLFRD ; returns value.
0.372

Value wanted: protein stability index (Saccharomyces cerevisiae) of entry VCLLVSVCLLWL
0.172

###

- Tested on: Saccharomyces cerevisiae
- test_summary: protein stability index of tFT-peptide fusion (C-terminal peptide) (PSI (0-1 scale)); higher = more stable (slower turnover)
- reported_conditions: genetic background: wild type; temperature: 30 C
// reported protein stability index per item
No unit in the answer, only the number.

Examples with answers:
# biosequence, readout_name, assay_result
measured = [
    ("IRIDRNLNSLGK", "protein stability index", 0.685),
    ("KIGSQLAGYKIS", "protein stability index", 0.595),
    ("SRLLGVKVSLVC", "protein stability index", 0.472),
    ("CQFPSLPLPSFM", "protein stability index", 0.66),
    ("GLLCWVGRWGVF", "protein stability index", 0.596),
    ("TSPLSPAPPPPR", "protein stability index", 0.641),
    ("LQYSKALAVICG", "protein stability index", 0.374),
    ("VARPEWWSGGGS", "protein stability index", 0.727),
    ("LITRLLCSPCSQ", "protein stability index", 0.605),
    ("VTLGLSMVQWTY", "protein stability index", 0.57),
]

What protein stability index value was documented for this sequence, GGSRGGRWGLGE ?
0.746

Would you kindly share the measured protein stability index for GDVSYRWLRACT ?
0.658

Dear colleague, I am looking for the recorded protein stability index of the following sequence: LPHFHPPLDPPA
0.692

Report protein stability index for EAIQDCERGPCW please.
0.698

Could you share which protein stability index value was measured for QVDLVCKKVVGV ?
0.655

What value of protein stability index has been reported for the following sequence? KKHEKVKSNTKR
0.666
